# experimental-system: HLA-B*53:01
# assay-info: IEDB peptide-MHC binding, purified MHC/competitive/radioactivity; filed as Kd, often an IC50 or EC50 that approximates it; bounds were set here for any values at or beyond the usual limits of such assays
# assay-setup: source organism: Dengue virus 4 Philippines/H241/1956
Listing of recorded Kd by entry.
Field format: number, assumed µM, no unit text.

{"macromolecule-sequence": "MPTVIEELEK", "experimental-system": "HLA-B*53:01", "unit-descriptor": "µM", "reported-value": 5.38}

Then this sequence:
// query # input sequence: MVMTTTANW ; wanted: its Kd
// result 0.00345

====

# experimental-system: HLA-B*27:03
# assay-info: IEDB peptide-MHC binding, purified MHC/competitive/fluorescence; filed as Kd, often an IC50 or EC50 that approximates it; bounds were set here for any values at or beyond the usual limits of such assays
# assay-setup: source organism: Encephalitozoon cuniculi GB-M1
experimental-endpoint: Kd

// query HLA-B*27:03 / Kd / EAYCALLCK : value?
// result ≥ 20 µM

====

# experimental-system: HLA-A*02:11
# assay-info: IEDB peptide-MHC binding, purified MHC/direct/fluorescence; filed as Kd, often an IC50 or EC50 that approximates it; bounds were set here for any values at or beyond the usual limits of such assays
# assay-setup: source organism: Choclo virus
experimental-endpoint: Kd

// query Reported Kd for ELRQLAQSL : what is it?
// result ≥ 20 µM

====

# experimental-system: HLA-B*27:05
# assay-info: IEDB peptide-MHC binding, purified MHC/competitive/fluorescence; filed as Kd, often an IC50 or EC50 that approximates it; bounds were set here for any values at or beyond the usual limits of such assays
# assay-setup: source organism: Entamoeba histolytica HM-1:IMSS
experimental-endpoint: Kd

// query Which Kd value is on record for EVIRATYPS ?
// result ≥ 5 µM

====

# experimental-system: HLA-B*27:05
# assay-info: IEDB peptide-MHC binding, purified MHC/direct/fluorescence; filed as Kd, often an IC50 or EC50 that approximates it; bounds were set here for any values at or beyond the usual limits of such assays
# assay-setup: source organism: Salmonella enterica
pKd: −log10 of the molar value.
Measured pKd values are reported for all entries that follow.

{"macromolecule-sequence": "NVHRSQFAQ", "pKd": "≤ 4.70"}

Next sequence, please.
// query Fill blank: measured pKd of the sequence WTLETLPRV is ____.
// result ≤ 4.70

====

# experimental-system: HLA-B*44:02
# assay-info: IEDB peptide-MHC binding, purified MHC/competitive/fluorescence; filed as Kd, often an IC50 or EC50 that approximates it; bounds were set here for any values at or beyond the usual limits of such assays
# assay-setup: source organism: Entamoeba histolytica HM-1:IMSS
experimental-endpoint: Kd

// query Param item = EVIRATYPS ; retrieve measured Kd.
// result ≥ 5 µM

====

# experimental-system: HLA-B*44:02
# assay-info: IEDB peptide-MHC binding, purified MHC/competitive/radioactivity; filed as Kd, often an IC50 or EC50 that approximates it; bounds were set here for any values at or beyond the usual limits of such assays
# assay-setup: source organism: Dengue virus 1 Brazil/97-11/1997
Measured pKd values are reported for all entries that follow.
In plain terms, pKd is the concentration in mol/L turned into minus its base-10 logarithm.

{"macromolecule-sequence": "NEMGLLETTK", "pKd": 5.77}

// query Find the recorded pKd belonging to RELKCGSGIF and report it.
// result 7.26

====

# experimental-system: HLA-A*02:03
# assay-info: IEDB peptide-MHC binding, purified MHC/direct/fluorescence; filed as Kd, often an IC50 or EC50 that approximates it; bounds were set here for any values at or beyond the usual limits of such assays
# assay-setup: source organism: Choclo virus
experimental-endpoint: Kd

// query GET /values?readout=Kd&item= ELRQLAQSL
// result ≥ 20 µM

====

# experimental-system: HLA-B*46:01
# assay-info: IEDB peptide-MHC binding, purified MHC/direct/fluorescence; filed as Kd, often an IC50 or EC50 that approximates it; bounds were set here for any values at or beyond the usual limits of such assays
# assay-setup: source organism: West Nile virus
experimental-endpoint: Kd (nM)
Express it in nM; write the number only.

// query Which Kd is listed for GVIMPNGSY ?
// result 1990

====

# experimental-system: HLA-A*02:06
# assay-info: IEDB peptide-MHC binding, purified MHC/competitive/radioactivity; filed as Kd, often an IC50 or EC50 that approximates it; bounds were set here for any values at or beyond the usual limits of such assays
# assay-setup: source organism: Trypanosoma cruzi
experimental-endpoint: pKd
Give only the number. pKd is defined as minus log10 of concentration in molar units.

// query Consider the sequence shown here: LVGLWGAAAL What is its recorded pKd?
// result 6.40

====

# experimental-system: HLA-A*02:12
# assay-info: IEDB peptide-MHC binding, purified MHC/competitive/fluorescence; filed as Kd, often an IC50 or EC50 that approximates it; bounds were set here for any values at or beyond the usual limits of such assays
# assay-setup: source organism: Encephalitozoon cuniculi GB-M1
experimental-endpoint: Kd (µM)
# number only, unit µM dropped from output

// query So what does the record say about Kd for GVYGGLCLA ?
// result 0.122

====

# experimental-system: HLA-B*51:01
# assay-info: IEDB peptide-MHC binding, purified MHC/direct/fluorescence; filed as Kd, often an IC50 or EC50 that approximates it; bounds were set here for any values at or beyond the usual limits of such assays
# assay-setup: source organism: Encephalitozoon cuniculi GB-M1
experimental-endpoint: Kd (µM)
Record the value in µM, omitting the unit from your answer.

// query Entry HPYVFCALL : reported Kd = ?
// result 2.92

====

# experimental-system: HLA-B*83:01
# assay-info: IEDB peptide-MHC binding, purified MHC/competitive/fluorescence; filed as Kd, often an IC50 or EC50 that approximates it; bounds were set here for any values at or beyond the usual limits of such assays
# assay-setup: source organism: human gammaherpesvirus 4
experimental-endpoint: Kd

// query Form field: reported Kd of AQRAAGPSV
// result ≥ 5 µM

====

# experimental-system: HLA-B*15:01
# assay-info: IEDB peptide-MHC binding, purified MHC/direct/fluorescence; filed as Kd, often an IC50 or EC50 that approximates it; bounds were set here for any values at or beyond the usual limits of such assays
# assay-setup: source organism: Brucella abortus 2308
pKd: −log10 of the molar value.
experimental-endpoint: pKd

// query # pKd lookup, item RVYKNYDPR
// result ≤ 4.70

====

# experimental-system: HLA-B*15:17
# assay-info: IEDB peptide-MHC binding, purified MHC/competitive/fluorescence; filed as Kd, often an IC50 or EC50 that approximates it; bounds were set here for any values at or beyond the usual limits of such assays
# assay-setup: source organism: Orthohantavirus sinnombreense
experimental-endpoint: Kd

// query Data request, read-out Kd, for FRYKSRCYV
// result ≥ 20 µM

====

Parameter Kd: see the listing below.
# experimental-system: HLA-A*29:02
# assay-info: IEDB peptide-MHC binding, purified MHC/competitive/fluorescence; filed as Kd, often an IC50 or EC50 that approximates it; bounds were set here for any values at or beyond the usual limits of such assays
# assay-setup: source organism: Homo sapiens

{"macromolecule-sequence": "SSDLRSWTF", "Kd": "≥ 20 µM"}

// next item, Kd requested
// query Can you share its Kd? I mean this sequence: TFMDHVLRY
// result ≤ 0.0001 µM

====

# experimental-system: HLA-B*58:01
# assay-info: IEDB peptide-MHC binding, purified MHC/direct/fluorescence; filed as Kd, often an IC50 or EC50 that approximates it; bounds were set here for any values at or beyond the usual limits of such assays
# assay-setup: source organism: Mycobacterium tuberculosis C
pKd: −log10 of the molar value.
experimental-endpoint: pKd

// query Endpoint output: pKd of IIRTENRPL . Value?
// result ≤ 4.70

====

# experimental-system: HLA-B*40:01
# assay-info: IEDB peptide-MHC binding, purified MHC/direct/fluorescence; filed as Kd, often an IC50 or EC50 that approximates it; bounds were set here for any values at or beyond the usual limits of such assays
# assay-setup: source organism: Mammarenavirus guanaritoense
experimental-endpoint: Kd (nM)
The reply should be a number in nM, with the unit left off.

// query Find the recorded Kd belonging to SEFCDMLRL and report it.
// result 84.2

====

# experimental-system: HLA-B*15:01
# assay-info: IEDB peptide-MHC binding, purified MHC/competitive/radioactivity; filed as Kd, often an IC50 or EC50 that approximates it; bounds were set here for any values at or beyond the usual limits of such assays
# assay-setup: source organism: Vaccinia virus WR
Just a reminder that ties go to N: only Kd strictly below 0.2 µM counts as Y.

{"macromolecule-sequence": "KKYNNDKSF", "class-label": "N"}
{"macromolecule-sequence": "AMIELCGAF", "class-label": "Y"}
{"macromolecule-sequence": "LSASVFYRG", "class-label": "N"}
{"macromolecule-sequence": "LVRHYFRYI", "class-label": "Y"}
{"macromolecule-sequence": "KVKDLFNTK", "class-label": "N"}

Turning now to a further sequence:
// query Consider the sequence NVFKAMETF . Is its Kd strictly less than 0.2 µM?
// result Y
